Hello, the source for this data is the supplement of paper PMC4932681, in case you need it.

- System: ZR-75-1 Tam2
- assay_info: relative IC50 (midpoint of fitted logistic curve, plateau may be below 50% inhibition; CellTiter-Glo viability); higher = less potent
- applied_conditions: 4-OH-tamoxifen in medium 1 µM; 72 h
endpoint: relative IC50

{"molecule": "CCc1c2c(nc3ccc(OC(=O)N4CCC(N5CCCCC5)CC4)cc13)-c1cc3c(c(=O)n1C2)COC(=O)[C@]3(O)CC [Irinotecan]", "relative IC50": "1.59 µM"}
{"molecule": "C=C1C[C@@H]2[C@H](CC[C@]3(C)C(=O)CC[C@@H]23)[C@@]2(C)C=CC(=O)C=C12 [Exemestane]", "relative IC50": "> 10 µM"}
{"molecule": "COC1=C2C[C@@H](C)C[C@H](OC)[C@H](O)[C@@H](C)/C=C(\\C)[C@H](OC(N)=O)[C@@H](OC)/C=C\\C=C(/C)C(=O)NC(=CC1=O)C2=O [Geldanamycin]", "relative IC50": "1.44 µM"}
{"molecule": "COc1c2occc2cc2ccc(=O)oc12 [Methoxsalen]", "relative IC50": "> 10 µM"}
{"molecule": "CC[C@@]1(O)C(=O)OCc2c1cc1n(c2=O)Cc2cc3ccccc3nc2-1 [Camptothecin]", "relative IC50": "0.0598 µM"}
{"molecule": "Nc1nc(=O)c2c([nH]1)NCC(CNc1ccc(C(=O)N[C@@H](CCC(=O)O)C(=O)O)cc1)N2C=O (mixture of isomers) [Folinic acid]", "relative IC50": "> 990 µM"}
{"molecule": "CC(O)(CS(=O)(=O)c1ccc(F)cc1)C(=O)Nc1ccc(C#N)c(C(F)(F)F)c1 (stereo not drawn) [Bicalutamide]", "relative IC50": "> 10 µM"}
{"molecule": "NC(=O)c1ccc(I)c([N+](=O)[O-])c1", "relative IC50": "> 10 µM"}
{"molecule": "CC(C)C[C@H](NC(=O)[C@@H](COC(C)(C)C)NC(=O)[C@H](Cc1ccc(O)cc1)NC(=O)[C@H](CO)NC(=O)[C@H](Cc1c[nH]c2ccccc12)NC(=O)[C@H](Cc1cnc[nH]1)NC(=O)[C@@H]1CCC(=O)N1)C(=O)N[C@@H](CCCNC(=N)N)C(=O)N1CCC[C@H]1C(=O)NNC(N)=O [Goserelin acetate]", "relative IC50": "> 10 µM"}
{"molecule": "Cn1c(=O)c(F)c(Nc2ccc(I)cc2F)c2c(=O)n(C[C@@H](O)CO)cnc21 [TAK-733]", "relative IC50": "> 1 µM"}

Q. Need relative IC50 of CC1=C2C[C@H]3[C@@H](CC=C4C[C@@H](O)CC[C@@]43C)[C@@H]2CC[C@]12O[C@@H]1C[C@H](C)CN[C@H]1[C@H]2C [Cyclopamine] , thanks.
A. > 10 µM

Q. For Cn1cnc2c(F)c(Nc3ccc(Br)cc3F)c(C(=O)NOCCO)cc21 [MEK-162 (ARRY-162)] , what is its reported relative IC50?
A. > 1 µM

Q. relative IC50 lookup needed for O=C(c1cc(Cc2n[nH]c(=O)c3ccccc23)ccc1F)N1CCN(C(=O)C2CC2)CC1 [Olaparib] , thanks.
A. > 10 µM

* * *

- Tested on: ZR-75-1 Tam1
- assay_info: relative IC50 (midpoint of fitted logistic curve, plateau may be below 50% inhibition; CellTiter-Glo viability); higher = less potent
- applied_conditions: 4-OH-tamoxifen in medium 1 µM; 72 h
endpoint: relative IC50

{"smiles_string": "Cc1cn(-c2cc(NC(=O)c3ccc(C)c(Nc4nccc(-c5cccnc5)n4)c3)cc(C(F)(F)F)c2)cn1", "endpoint": "relative IC50", "recorded_value": "> 10 µM"}
{"smiles_string": "CCCCCCCCc1ccc(CCC(N)(CO)CO)cc1", "endpoint": "relative IC50", "recorded_value": "3.37 µM"}
{"smiles_string": "CC1(C)CCC(c2ccc(Cl)cc2)=C(CN2CCN(c3ccc(C(=O)NS(=O)(=O)c4ccc(N[C@H](CCN5CCOCC5)CSc5ccccc5)c(S(=O)(=O)C(F)(F)F)c4)cc3)CC2)C1", "endpoint": "relative IC50", "recorded_value": "> 10 µM"}
{"smiles_string": "CS(=O)(=O)CCNCc1ccc(-c2ccc3ncnc(Nc4ccc(OCc5cccc(F)c5)c(Cl)c4)c3c2)o1", "endpoint": "relative IC50", "recorded_value": "> 1 µM"}
{"smiles_string": "CCS(=O)(=O)c1cccc(-c2cc(C(=O)NC3CCN(C)CC3)c(C)c3[nH]c4ncc(C)cc4c23)c1", "endpoint": "relative IC50", "recorded_value": "> 1 µM"}
{"smiles_string": "Cc1cc2c(F)c(Oc3ncnn4cc(OC[C@@H](C)O)c(C)c34)ccc2[nH]1", "endpoint": "relative IC50", "recorded_value": "> 1 µM"}

Q. So what's the measured relative IC50 for this one? CCN(CC)CCNC(=O)c1c(C)[nH]c(/C=C2\C(=O)Nc3ccc(F)cc32)c1C
A. > 1 µM

Q. Need relative IC50 of O=c1[nH]cc(F)c(=O)[nH]1 , thanks.
A. > 10 µM

* * *

- System: BT-474 Tam1
- assay_info: drug sensitivity score (DSS) (DSS (dimensionless)); higher = more sensitive; extreme values may be limits of the assay
- applied_conditions: 4-OH-tamoxifen in medium 1 µM; 72 h
Consider the following compounds and their measured drug sensitivity score readings.
Returns: the value as a bare number; no unit string appended.

Take a look at these entries with their results.
{"smiles_string": "O=S(=O)(c1cccc2cnccc12)N1CCCNCC1", "study_target": "BT-474 Tam1", "drug sensitivity score": 6.87}
{"smiles_string": "N[C@@H](CSC(c1ccccc1)(c1ccccc1)c1ccccc1)C(=O)O", "study_target": "BT-474 Tam1", "drug sensitivity score": 1.68}
{"smiles_string": "Nc1ncn([C@@H]2O[C@H](CO)[C@@H](O)[C@H]2O)c(=O)n1", "study_target": "BT-474 Tam1", "drug sensitivity score": 0}

Q. Returns the measured drug sensitivity score for the input compound. Input: CC1=C(/C=C/C(C)=C/C=C/C(C)=C/C(=O)O)C(C)(C)CCC1
A. 0

Q. Would you kindly share the measured drug sensitivity score for C[C@]12C=CC(=O)C=C1CC[C@@H]1[C@@H]2C(=O)C[C@@]2(C)[C@H]1CC[C@]2(O)C(=O)CO ?
A. 0

Q. Dear colleague, I am looking for the recorded drug sensitivity score of the following compound: Oc1ncc(N(CCCl)CCCl)c(O)n1
A. 0

Q. Record request: drug sensitivity score value, item COc1ccc(-c2cc3c(C)nc(N)nc3n([C@H]3CC[C@H](OCCO)CC3)c2=O)cn1
A. 22.7

Q. Give its drug sensitivity score value. Item: COc1cc(Nc2ncc3c(n2)-c2ccc(Cl)cc2C(c2c(F)cccc2OC)=NC3)ccc1C(=O)O
A. 0.0274

* * *

- Tested on: BT-474 Tam1
- assay_info: drug sensitivity score (DSS) (DSS (dimensionless)); higher = more sensitive; extreme values may be limits of the assay
- applied_conditions: 4-OH-tamoxifen in medium 1 µM; 72 h
endpoint: drug sensitivity score

{"compound": "CCCCCCCCc1ccc(CCC(N)(CO)CO)cc1", "study_target": "BT-474 Tam1", "recorded_value": 4.13}

Q. drug sensitivity score of C[C@@H]1C=C2C(=O)O[C@@H]3CC[C@H](C1)[C@]23O on BT-474 Tam1?
A. 2.19

Q. Provide value of drug sensitivity score for this record tested with BT-474 Tam1: COc1cc2c(Oc3ccc4[nH]c(C)cc4c3F)ncnc2cc1OCCCN1CCCC1
A. 0.271

Q. Lab request: please report drug sensitivity score under test system BT-474 Tam1 for C=C(c1ccc(C(=O)O)cc1)c1cc2c(cc1C)C(C)(C)CCC2(C)C
A. 0

Q. Tell me reported drug sensitivity score for CCNC(=O)CCC/C=C\C[C@@H]1[C@@H](/C=C/[C@@H](O)CCc2ccccc2)[C@H](O)C[C@@H]1O , tested with BT-474 Tam1.
A. 0

Q. # returns recorded drug sensitivity score (system: BT-474 Tam1) for Nc1cc(C(F)(F)F)c(-c2cc(N3CCOCC3)nc(N3CCOCC3)n2)cn1
A. 9.32

* * *

- System: T-47D Tam1
- assay_info: viability inhibition at highest dose (% inhibition); higher = more growth inhibition
- applied_conditions: 4-OH-tamoxifen in medium 1 µM; 72 h
Counter-ions that a name gives are not always drawn.
# viability inhibition at highest dose binned as low: < 20; medium: ≥ 20 and < 30; high: ≥ 30

Please review the entries below; each comes with its answer.
{"compound": "CCOc1cc2ncc(C#N)c(Nc3ccc(OCc4ccccn4)c(Cl)c3)c2cc1NC(=O)/C=C/CN(C)C [Neratinib] (drug 1000 nM)", "study_target": "T-47D Tam1", "classification": "high"}
{"compound": "N#CCNC(=O)c1ccc(-c2ccnc(Nc3ccc(N4CCOCC4)cc3)n2)cc1 [Momelotinib (CYT-387)] (drug 10000 nM)", "study_target": "T-47D Tam1", "classification": "high"}
{"compound": "CC(=O)O[C@@]12CO[C@@H]1C[C@H](O)[C@@]1(C)C(=O)[C@H](O)C3=C(C)[C@@H](OC(=O)[C@H](O)[C@@H](NC(=O)OC(C)(C)C)c4ccccc4)C[C@@](O)([C@@H](OC(=O)c4ccccc4)[C@H]21)C3(C)C [Docetaxel] (drug 1000 nM)", "study_target": "T-47D Tam1", "classification": "medium"}
{"compound": "CO[C@H]1C[C@@H]2CC[C@@H](C)[C@@](O)(O2)C(=O)C(=O)N2CCCC[C@H]2C(=O)O[C@H]([C@H](C)C[C@@H]2CC[C@@H](OP(C)(C)=O)[C@H](OC)C2)CC(=O)[C@H](C)/C=C(\\C)[C@@H](O)[C@@H](OC)C(=O)[C@H](C)C[C@H](C)/C=C/C=C/C=C/1C [Ridaforolimus] (drug 100 nM)", "study_target": "T-47D Tam1", "classification": "high"}
{"compound": "CO[C@@]12[C@H](COC(N)=O)C3=C(C(=O)C(C)=C(N)C3=O)N1C[C@@H]1N[C@@H]12 [Mitomycin C] (drug 10000 nM)", "study_target": "T-47D Tam1", "classification": "high"}

Q. Where would CN1CCC(COc2cnc(-c3cccc(Cn4nc(-c5cccc(C#N)c5)ccc4=O)c3)nc2)CC1 (drug 1000 nM) land among the classes by reported viability inhibition at highest dose?
A. high

Q. # classify by viability inhibition at highest dose band: C/C(=C\c1csc(C)n1)[C@@H]1C[C@@H]2O[C@]2(C)CCC[C@H](C)[C@H](O)[C@@H](C)C(=O)C(C)(C)[C@@H](O)CC(=O)O1 [Patupilone (Epothilone B)] (drug 1000 nM)
A. medium

Q. Lab note: which band did CC(C)(C)NC(=O)[C@H]1CC[C@H]2[C@@H]3CC[C@H]4NC(=O)C=C[C@]4(C)[C@H]3CC[C@]12C [Finasteride] (drug 10000 nM) land in?
A. low

Q. Would you mind sorting O=C1CCC(N2C(=O)c3ccccc3C2=O)C(=O)N1 (centres undefined) [Thalidomide] (drug 10000 nM) into the appropriate category?
A. low

Q. Which viability inhibition at highest dose category applies to C=CC[C@@H]1/C=C(\C)C[C@H](C)C[C@H](OC)[C@H]2O[C@@](O)(C(=O)C(=O)N3CCCC[C@H]3C(=O)O[C@H](/C(C)=C/[C@@H]3CC[C@@H](O)[C@H](OC)C3)[C@H](C)[C@@H](O)CC1=O)[C@H](C)C[C@@H]2OC [Tacrolimus (FK 506)] (drug 10000 nM) here?
A. medium

Q. Determine which band this compound sits in: CS(=O)(=O)c1ccc(C(=O)Nc2ccc(Cl)c(-c3ccccn3)c2)c(Cl)c1 [Vismodegib] (drug 10000 nM)
A. low

Q. Class label required: Cc1ccc(C(=O)Nc2ccc(CN3CCN(C)CC3)c(C(F)(F)F)c2)cc1C#Cc1cnc2cccnn12 (drug 1000 nM)
A. high

Q. # bin label for CC/C(=C(\c1ccccc1)c1ccc(OCCN(C)C)cc1)c1ccccc1 [Tamoxifen citrate] (drug 10000 nM)
A. low

Q. Into which bin does this compound go? COC1=CC(c2cc3ccccc3[nH]2)=N/C1=C\c1[nH]c(C)cc1C [Obatoclax (GX15-070)] (drug 10000 nM)
A. high
